Assay: MTS cytotoxicity assay, BJ
Type: cell-based
Details: human
Excerpt: The p53 deficient variant, HCT116p53−/−, was purchased from Horizon Discovery (Cambridge, UK). The daunorubicin-resistant CCRF-CEM cell line CEM-DNR bulk and paclitaxel-resistant K562-TAX sublines were developed in-house by exposing parental cell lines to escalating concentrations of daunorubicin and paclitaxel, respectively. […]
For each of the molecules below, state its IC50 at 72 h.

Reported IC50 at 72 h for "CC(=O)Oc1cc(Cn2cc([C@]3(O)CC[C@H]4[C@@H]5CCc6cc(O)ccc6[C@H]5CC[C@@]43C)nn2)cc(Cn2cc([C@]3(O)CC[C@H]4[C@@H]5CCc6cc(O)ccc6[C@H]5CC[C@@]43C)nn2)c1" : what is it?
> 50 µM

Same read-out for "Cc1cc(Cn2cc([C@]3(O)CC[C@H]4[C@@H]5CCc6cc(O)ccc6[C@H]5CC[C@@]43C)nn2)c(O)c(Cn2cc([C@]3(O)CC[C@H]4[C@@H]5CCc6cc(O)ccc6[C@H]5CC[C@@]43C)nn2)c1" ?
> 50 µM

Would you mind doing "C[C@]12CC[C@@H]3c4ccc(O)cc4CC[C@H]3[C@@H]1CC[C@@]2(O)c1cn(Cc2cccc(Cn3cc([C@]4(O)CC[C@H]5[C@@H]6CCc7cc(O)ccc7[C@H]6CC[C@@]54C)nn3)c2)nn1" as well?
> 50 µM
